Measured values drawn from PubChem BioAssay AID1626 for this set.

- ASSAY PROCEDURE: M. tuberculosis H37Rv growth inhibitors, H37Rv strain (AID 1626);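 also: bacteria incubated seven days before Alamar blue readout; 0% = bacteria only wells and 100% = bacteria with antibiotic wells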
- CONDITION DESCRIPTION: stronger effect = higher value, concentration not given here
About 2,000 (0.91%) of roughly 220,000 compounds were called active. Roughly 2% stayed inconclusive and do not appear here. A selection follows. Results with a measured potency or affinity are listed apart.
Assign inhibition to each entry below.
Answers are plain numbers, in %.

These solved cases illustrate the format of a correct answer.
- CCOC(=O)c1ccc(NC(=S)NNC(=O)C2(C)CC2(Cl)Cl)cc1 (stereo unspecified): 1.27
- CC(C)CNS(=O)(=O)c1ccc(CCC(=O)Nc2cc(Cl)ccc2Oc2ccccc2)cc1: 9.05
- N#CCC(=O)Nc1ccc(C(=O)NCc2ccccn2)cc1: -2.46
- OCCC1CN(Cc2cccc(-n3cccn3)c2)CCN1Cc1ccccc1 (stereo unspecified): -1.74

Return reported inhibition values for all items listed beneath this line.
1. CC(C)(C)c1cc(-n2ccnc2)n2ncc(-c3ccc(Cl)cc3)c2n1
2. Cc1cc(NCCCN2CCOCC2)n2ncc(-c3ccccc3)c2n1

1. 6.96
2. 7.39

----------
- ASSAY PROCEDURE: M. tuberculosis H37Rv growth inhibitors, H37Rv strain (AID 1626);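 also: bacteria incubated seven days before Alamar blue readout; 0% = bacteria only wells and 100% = bacteria with antibiotic wells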
- CONDITION DESCRIPTION: stronger effect = higher value, concentration not given here
Out of some 220,000 compounds screened, about 2,000 (0.91%) were called active. Roughly 2% stayed inconclusive and do not appear here. Only a sample is shown. Results with a measured potency or affinity are listed apart.
EXPERIMENTAL ENDPOINT: inhibition (%)
Give bare numbers, in %.

* C#CCNC(=O)C1=C[C@H](c2ccc3c(c2)OCO3)C[C@H](OCCCCO)O1 | -6.12

Return reported inhibition values for all items listed beneath this line.
1. COc1ccc(NC(=O)CCOc2ccccc2)c(OC)c1
2. COC(=O)c1cccc(NC(=O)Nc2ccc(Cl)c(Cl)c2)c1
3. COc1ccc(C2Nc3ccccc3C(=O)N2NC(=O)c2ccccc2)cc1OC (stereo unspecified)
4. COC(=O)c1cc(NC(=O)CSc2nc(C)cc(=O)[nH]2)cc(C(=O)OC)c1
5. O=C(COCC(=O)N1CCOCC1)N1CCOCC1

-0.51
51.3
2.58
-18.1
-0.86

Return reported inhibition values for all items listed beneath this line.
1. O=C(COC(=O)CNS(=O)(=O)/C=C/c1ccccc1)NC1CCS(=O)(=O)C1 (stereo unspecified)
2. Cc1ccccc1-n1c(C)nc2ccccc2c1=O
3. CSc1cccc(NC(=S)N(CCC(C)C)C2CCN(C(C)=O)CC2)c1

1. -7.59
2. 2.88
3. -6.61

Return reported inhibition values for all items listed beneath this line.
1. N/C(=N/OC(=O)c1ccccc1F)c1nonc1N
2. Cc1cc(=O)[nH]c(SCc2nc3ccccc3n2Cc2ccccc2)n1

1.17
-7.65

----------
- ASSAY PROCEDURE: M. tuberculosis H37Rv growth inhibitors, H37Rv strain (AID 1626);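 also: bacteria incubated seven days before Alamar blue readout; 0% = bacteria only wells and 100% = bacteria with antibiotic wells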
- CONDITION DESCRIPTION: stronger effect = higher value, concentration not given here
Among all 220,000 compounds or so, about 2,000 (0.91%) were called active. Not shown: some 2% with an inconclusive outcome. Not all results are given here. Potency and affinity values are given separately.
EXPERIMENTAL ENDPOINT: inhibition (%)
Give bare numbers, in %.

Return reported inhibition values for all items listed beneath this line.
1. C/C(=N/N1CCN(Cc2cccc3ccccc23)CC1)c1ccco1
2. O=C(NCCN1CCOCC1)N1CCOCC1

[-5.28, -3.24]
